- test.system: T1, S. pombe SpRap1RCT (SpRap1 residues 639-693) (S. pombe, UniProt Q96TL7 639-693)
- T1 sequence (looked up): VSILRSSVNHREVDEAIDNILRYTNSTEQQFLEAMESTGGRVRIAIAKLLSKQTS
- protocol.description: ITC
reported.property: pKd
One number for each entry, as −log10 of the molar value.

Prompt: Would you mind telling me what pKd value was observed for LSVKGMLYDSDSQQILNRLRERVSGSTAQSAD (domain or fragment, UniProt P79005 365-396, looked up) [S. pombe Taz1RBM (Taz1 residues 365-396)] ?
Response: 5.70
